Quick list: Activity per entry.
Protocol notes: Antioxidant activity assessed as trolox equivalent of […]-induced radical scavenging activity at 1 to 10 uM pretreated for 15 mins followed by […] addition measured at 1 min interval for 90 mins by ORAC-FL assay
Assay type: functional
Test readout: Activity (equiv)

[[record]]
molecule = "CC(C(=O)O)c1ccc(-c2ccc(O)c(C(=O)/C=C/c3cccs3)c2)c(F)c1 (centres undefined)"
unit_text = "equiv"
quantitative_result = 1.2

[[record]]
molecule = "COc1cccc(/C=C/C(=O)c2cc(-c3ccc(C(C)C(=O)O)cc3F)ccc2O)c1O (centres undefined)"
unit_text = "equiv"
quantitative_result = 1.6

[[record]]
molecule = "Cc1ccc(/C=C/C(=O)c2cc(-c3ccc(C(C)C(=O)O)cc3F)ccc2O)cc1 (centres undefined)"
unit_text = "equiv"
quantitative_result = 0.42

[[record]]
molecule = "CC(C(=O)O)c1ccc(-c2ccc(O)c(C(=O)/C=C/c3ccc(N4CCOCC4)cc3)c2)c(F)c1 (centres undefined)"
unit_text = "equiv"
quantitative_result = 2.23

